Test: Pharmacokinetic evaluation in plasma after IV and PO administration
Assay type: in vivo
Conditions: female Balb/c mice, PO 10 mg/kg
The following compounds are shown together with reported AUCExtra values.
A complete answer gives the number followed by the unit.

[
  {
    "COMPOUND": "C[C@H]1COCCN1c1nc(N2CCOC3(CC3)C2)nc2nc(-c3cccc(C(N)=O)c3)ccc12 [Embodiment 51]",
    "MEASURED ATTRIBUTE": "AUCExtra",
    "RESULT": "0.225%"
  }
]

Annotate the compound CNC(=O)c1cccc(-c2ccc3c(N4CCOC[C@@H]4C)nc(N4CCOC5(CC5)C4)nc3n2)c1 [Embodiment 1] with its measured AUCExtra.
0.174%

Give reported AUCExtra value for CNC(=O)c1cccc(-c2ccc3c(N4CCOC[C@@H]4C)nc(N4CCOC5(CCC5)C4)nc3n2)c1 [Embodiment 23]
0.414%

Give AUCExtra for CNC(=O)c1cccc(-c2ccc3c(N4CCOC[C@@H]4C)nc(N4CCOC[C@@H]4C)nc3n2)c1 [AZD2014, reference compound]
0.156%

###

Experiment: Pharmacokinetic evaluation in plasma after IV and PO administration
Format: in vivo
Conditions: mouse, female Balb/c mice, IV 2 mg/kg
Measured AUC(0-t) values are reported for all entries that follow.
Write the value in µM·h as a bare number.

Example compounds with recorded AUC(0-t):
[
  {
    "COMPOUND": "CNC(=O)c1cccc(-c2ccc3c(N4CCOC[C@@H]4C)nc(N4CCOC5(CC5)C4)nc3n2)c1",
    "AUC(0-t), µM·h": 7.41
  },
  {
    "COMPOUND": "C[C@H]1COCCN1c1nc(N2CCOC3(CC3)C2)nc2nc(-c3cccc(C(N)=O)c3)ccc12",
    "AUC(0-t), µM·h": 9.73
  },
  {
    "COMPOUND": "CNC(=O)c1cccc(-c2ccc3c(N4CCOC[C@@H]4C)nc(N4CCOC[C@@H]4C)nc3n2)c1 [AZD2014, reference compound]",
    "AUC(0-t), µM·h": 8.88
  }
]

We next turn to a different compound, shown below.
Give AUC(0-t) for CNC(=O)c1cccc(-c2ccc3c(N4CCOC[C@@H]4C)nc(N4CCOC5(CCC5)C4)nc3n2)c1
13.4

###

Biological target: mTOR kinase (mTORC1 and mTORC2 kinase complex) (Homo sapiens, UniProt P42345)
Assay: In vitro evaluation of mTOR kinase inhibitory activity (DiscoverX ligand-bead competition binding, qPCR readout)
MEASURED ATTRIBUTE: Kd (nM)
Numbers only; they are read as nM.

Solved cases (5 shown):
[
  {
    "COMPOUND": "CNC(=O)c1cccc(-c2ccc3c(N4CCOCC4C)nc(N4CC5(CCOC5)OCC4C)nc3n2)c1 (single isomer, unassigned) [Embodiment 48-2]",
    "TARGET ENTITY": "mTOR kinase (mTORC1 and mTORC2 kinase complex) (Homo sapiens, UniProt P42345)",
    "MEASURED ATTRIBUTE": "Kd",
    "RESULT": 0.7
  },
  {
    "COMPOUND": "CNC(=O)c1cccc(-c2ccc3c(N4CCOC[C@@H]4C)nc(N4CCOC5(CN(C)C5)C4)nc3n2)c1 [Embodiment 27]",
    "TARGET ENTITY": "mTOR kinase (mTORC1 and mTORC2 kinase complex) (Homo sapiens, UniProt P42345)",
    "MEASURED ATTRIBUTE": "Kd",
    "RESULT": 6.6
  },
  {
    "COMPOUND": "CNC(=O)c1cccc(-c2ccc3c(N4CCOCC4C)nc(N4CCOC5(CCS(=O)(=O)C5)C4)nc3n2)c1 (single isomer, unassigned) [Embodiment 47-1]",
    "TARGET ENTITY": "mTOR kinase (mTORC1 and mTORC2 kinase complex) (Homo sapiens, UniProt P42345)",
    "MEASURED ATTRIBUTE": "Kd",
    "RESULT": 7.9
  },
  {
    "COMPOUND": "CNC(=O)c1cccc(-c2ccc3c(N4CCOC[C@@H]4C)nc(N4CC5(CCOCC5)C4)nc3n2)c1 [Embodiment 6]",
    "TARGET ENTITY": "mTOR kinase (mTORC1 and mTORC2 kinase complex) (Homo sapiens, UniProt P42345)",
    "MEASURED ATTRIBUTE": "Kd",
    "RESULT": 12
  },
  {
    "COMPOUND": "CNC(=O)c1cccc(-c2ccc3c(N4CCOCC4C)nc(N4CCOC5(CC[S+]([O-])C5)C4)nc3n2)c1 (single isomer, unassigned) [Embodiment 46-1]",
    "TARGET ENTITY": "mTOR kinase (mTORC1 and mTORC2 kinase complex) (Homo sapiens, UniProt P42345)",
    "MEASURED ATTRIBUTE": "Kd",
    "RESULT": 1
  }
]

Please indicate Kd recorded for CNC(=O)c1cccc(-c2ccc3c(N4CCOCC4C)nc(N4CCOC5(CC(O)C5)C4)nc3n2)c1 (single isomer, unassigned) [Embodiment 33-2]
0.38

###

Assay: Pharmacokinetic evaluation in plasma after IV and PO administration
Format: in vivo
Settings: mouse, female Balb/c mice, IV 2 mg/kg
Here, each record is paired with measured clearance data.
Expressed in mL/min/kg, but write only the number.

Some solved entries appear below for comparison.
[
  {
    "MOLECULE": "C[C@H]1COCCN1c1nc(N2CCOC3(CC3)C2)nc2nc(-c3cccc(C(N)=O)c3)ccc12",
    "MEASURED ATTRIBUTE": "clearance",
    "RESULT": 7.72
  },
  {
    "MOLECULE": "CNC(=O)c1cccc(-c2ccc3c(N4CCOC[C@@H]4C)nc(N4CCOC5(CC5)C4)nc3n2)c1",
    "MEASURED ATTRIBUTE": "clearance",
    "RESULT": 9.45
  },
  {
    "MOLECULE": "CNC(=O)c1cccc(-c2ccc3c(N4CCOC[C@@H]4C)nc(N4CCOC5(CCC5)C4)nc3n2)c1",
    "MEASURED ATTRIBUTE": "clearance",
    "RESULT": 5.08
  }
]

Read the next record carefully.
Quick one: give measured clearance for CNC(=O)c1cccc(-c2ccc3c(N4CCOC[C@@H]4C)nc(N4CCOC[C@@H]4C)nc3n2)c1 [AZD2014, reference compound]
8.08

###

In this section we review reported AUC(0-inf) values for a set of molecules.
Assay: Pharmacokinetic evaluation in plasma after IV and PO administration
Assay type: in vivo
Conditions: mouse, female Balb/c mice, PO 10 mg/kg
Write the quantity with the unit trailing the number.

The following molecules have reported results that may help.
[
  {
    "MOLECULE": "C[C@H]1COCCN1c1nc(N2CCOC3(CC3)C2)nc2nc(-c3cccc(C(N)=O)c3)ccc12",
    "AUC(0-inf)": "42 µM·h"
  },
  {
    "MOLECULE": "CNC(=O)c1cccc(-c2ccc3c(N4CCOC[C@@H]4C)nc(N4CCOC5(CCC5)C4)nc3n2)c1",
    "AUC(0-inf)": "60.3 µM·h"
  },
  {
    "MOLECULE": "CNC(=O)c1cccc(-c2ccc3c(N4CCOC[C@@H]4C)nc(N4CCOC5(CC5)C4)nc3n2)c1",
    "AUC(0-inf)": "35 µM·h"
  }
]

Return value of AUC(0-inf) for input CNC(=O)c1cccc(-c2ccc3c(N4CCOC[C@@H]4C)nc(N4CCOC[C@@H]4C)nc3n2)c1 [AZD2014, reference compound] , no commentary.
41.5 µM·h

###

Listed molecules paired with reported Kd
Target: mTOR kinase (mTORC1 and mTORC2 kinase complex) (Homo sapiens, UniProt P42345)
Assay: In vitro evaluation of mTOR kinase inhibitory activity (DiscoverX ligand-bead competition binding, qPCR readout)
Note: unit nM is implicit; provide only the numeric part.

[
  {
    "MOLECULE": "CNC(=O)c1cccc(-c2ccc3c(N4CCOC[C@@H]4C)nc(N4CCOC5(CNC5)C4)nc3n2)c1 [Embodiment 15]",
    "UNIT ABBREVIATION": "nM",
    "Kd": 3.3
  }
]

Please indicate Kd recorded for CNC(=O)c1cccc(-c2ccc3c(N4CCOCC4C)nc(N4CCOC5CC54)nc3n2)c1 (single isomer, unassigned) [Embodiment 18-1]
3

Using the record for C[C@H]1COCCN1c1nc(N2CCOC3(CC3)C2)nc2nc(-c3ccc4cnc(N)nc4c3)ccc12 [Embodiment 25] , state its measured Kd.
1.4

# return recorded Kd for entry CNC(=O)c1cccc(-c2ccc3c(N4CCOC[C@@H]4C)nc(N4CCOC5(CCC5)C4)nc3n2)c1 [Embodiment 23]
0.38

Fill in reported Kd for this entry: C[C@H]1COCCN1c1nc(N2CCOC3(CC3)C2)nc2nc(-c3cccc(C(=O)NC(C)(C)C)c3)ccc12 [Embodiment 22]
1.5

Let me know recorded Kd for C[C@H]1COCCN1c1nc(N2CCOC3(CC3)C2)nc2nc(-c3ccc4nc(N)ncc4c3)ccc12 [Embodiment 16] , thanks.
1.5
